System: DeltatarO mutant
Assay: S. aureus survival, RN4220 and DeltatarO strains – OD600, teichoic acid synthesis inhibitors, primary screen (AID 463173)
Settings: S. aureus RN4220 wild type/DeltatarO growth, OD600, 18 h, stronger effect = lower value, screened at 18.75 µg/mL (by protocol)
About 4,300 (8.3%) of roughly 52,000 compounds were called active. This is one part of a sample in which actives are shown more often than they occur.
ASSAY ENDPOINT: survival (%)
Expressed in %, but write only the number.

Some entries whose results are on file:
[[record]]
molecule = "COc1ccc2nc(NS(=O)(=O)Cc3ccccc3)sc2c1"
recorded_result = 75

[[record]]
molecule = "O=C(CN1C(=O)C2(SCC(=O)N2c2cccc(Cl)c2)c2ccccc21)NCCc1ccccc1 (centres undefined)"
recorded_result = 104

[[record]]
molecule = "CCCc1cnc2c(c1SCC(=O)NCc1ccc(C)cc1)c(=O)n(C)c(=O)n2C"
recorded_result = -4


Return the recorded survival value; entry: COc1cc2c(cc1OC)C(CC(=O)Nc1ccccc1)C(=O)NN=C2C (centres undefined)
103

Return the recorded survival value; entry: COC(=O)c1cc2c(ccn2-c2ccc(F)cc2)n1CC(=O)N1CCCCC1
97

Return the recorded survival value; entry: Cn1c(=O)oc2cc(S(=O)(=O)N3CCC(C(=O)N4CCN(c5ccccc5F)CC4)CC3)ccc21
80

Return the recorded survival value; entry: CCN1CCN(Cc2nc3cc(NC(=O)c4ccccc4[N+](=O)[O-])ccc3n2CC)CC1
78

Return the recorded survival value; entry: Cn1c(=O)c2c(-c3ccccc3)n3c(c2n(C)c1=O)C(c1ccc([N+](=O)[O-])cc1)Nc1ccccc1-3 (centres undefined)
34

Return the recorded survival value; entry: CCOC(=O)c1c(NC(=O)C(C)Sc2cn(CCNC(=O)c3ccc(OCC)cc3)c3ccccc23)sc2c1CCC2 (centres undefined)
92

====

Measured survival accompanies every entry in the list below.
Test system: DeltatarO mutant
Assay: S. aureus survival, RN4220 and DeltatarO strains – OD600, teichoic acid synthesis inhibitors, primary screen (AID 463173)
Settings: S. aureus RN4220 wild type/DeltatarO growth, OD600, 18 h, stronger effect = lower value, screened at 18.75 µg/mL (by protocol)
Hit rate of the full screen: of about 52,000 compounds, about 4,300 (8.3%) were called active. This excerpt belongs to a sample that is enriched for actives.
Expressed in %, but write only the number.

Some entries whose results are on file:
[[record]]
molecule = "COc1ccc(CNC(=O)c2cc3c(=O)n(Cc4cccnc4)ccc3nc2C)cc1"
recorded_result = 37

[[record]]
molecule = "Cc1ccc(CCNC(=O)c2cc(-c3ccc(Cl)cc3)n[nH]2)cc1"
recorded_result = 69


Return the recorded survival value; entry: COc1cccc(Nc2cc(-c3ccccc3)nc(C)n2)c1
37

====

Test system: DeltatarO mutant
Experiment: S. aureus survival, RN4220 and DeltatarO strains – OD600, teichoic acid synthesis inhibitors, primary screen (AID 463173)
Conditions: S. aureus RN4220 wild type/DeltatarO growth, OD600, 18 h, screened at 18.75 µg/mL (by protocol)
In all, about 52,000 compounds went through this assay and about 4,300 (8.3%) were called active. Rule as the data show it: active = survival mostly below about 52% (no sharp cut-off); inactive = mostly above about 56%. Only a selection was taken, and actives are over-represented in it overall.
Just give me one of these, please: active, inactive

[[record]]
compound = "Clc1ccccc1N1CCN(c2ncnc3c2c(-c2ccccc2)cn3-c2ccccc2)CC1"
discrete_label = "inactive"


Assay result, entry CCOC(=O)c1cc(NC(=O)c2ccc(OC)cc2)c(=O)n2c1oc1ccc(Cl)cc12 — outcome?
active

Assay result, entry Cc1cc(N2CCN(c3ccc(F)cc3)CC2)n2cnnc2n1 — outcome?
inactive

Assay result, entry COc1ccc(CNC(=O)c2ccc(N3CCCC3)c(NC(=O)NCc3ccc(F)cc3)c2)cc1 — outcome?
inactive

Assay result, entry CCCOc1ccc(Oc2nc(NCC(C)C)nc(N3CCOCC3)n2)nn1 — outcome?
inactive

Assay result, entry CCOC(=O)c1cc(NC(=O)c2ccc(F)cc2)c(=O)n2c1oc1ccc(Cl)cc12 — outcome?
inactive

Assay result, entry Cc1ccc(N2CCN(Cc3nnc(-c4ccccc4F)o3)CC2)c(C)c1 — outcome?
active

Assay result, entry COc1ccc2c(c1)N(C)/C(=C1/SC(=Nc3ccc(C)cc3)N(C)C1=O)S2 — outcome?
inactive

Assay result, entry O=C(CCC1CCCC1)N1CCc2c([nH]c3ccccc23)C1c1ccc(F)cc1 (stereo unspecified) — outcome?
inactive

Assay result, entry CCOC(=O)c1cc(NC(=O)c2ccc(F)cc2)c(=O)n2c1oc1ccccc12 — outcome?
inactive

Assay result, entry CCc1ccc(CNC(=O)C(C)n2ccc3cc(S(=O)(=O)N4CCCCCC4)ccc32)cc1 (stereo unspecified) — outcome?
inactive

====

System: DeltatarO mutant
Experiment: S. aureus survival, RN4220 and DeltatarO strains – OD600, teichoic acid synthesis inhibitors, primary screen (AID 463173)
Conditions: S. aureus RN4220 wild type/DeltatarO growth, OD600, 18 h, screened at 18.75 µg/mL (by protocol)
The whole screen tested about 52,000 compounds, of which about 4,300 (8.3%) were called active. No stated cut-off is given here; in the data, active means survival mostly below about 52% (no sharp cut-off); inactive means mostly above about 56%. What follows is part of a selection rich in actives, with near analogues and random picks from the rest.
Just give me one of these, please: T for active, F for inactive

Assay result, entry COc1ccc(CN(CCC(c2ccc3c(c2)OCO3)c2ccccc2OC)C(C)=O)cc1 (configuration not stated) — outcome?
T

Assay result, entry CCCNC(=O)c1ccc(-n2c(-c3ccccc3)cc3c2CCCCC3)cc1 — outcome?
F

Assay result, entry CCOC(=O)c1cccc(NC(=O)Cn2c(CC(=O)N3CCCC3)nc3ccccc32)c1 — outcome?
F

Assay result, entry COc1ccc(NC(=O)C2CCCN(C(=O)c3cnn(-c4ccccc4)c3-n3cccc3)C2)cc1 (configuration not stated) — outcome?
F

Assay result, entry COc1ccc(CNCCC(c2ccc(C)cc2)c2ccco2)cc1 (configuration not stated) — outcome?
F

Assay result, entry O=C(Nc1cccc(Cl)c1Cl)c1cc(S(=O)(=O)N2CCCCC2)ccc1F — outcome?
F

Assay result, entry COCCCNC(=O)c1ccc(-n2c(-c3ccccc3)cc3c2CCCCC3)cc1 — outcome?
T

Assay result, entry O=C(NCc1ccc(F)cc1)c1ccc2oc(=O)n(Cc3ccccc3)c2c1 — outcome?
T

Assay result, entry Cc1nn2c(=O)cc(COC(=O)c3ccccc3NC(=O)c3ccccc3C)nc2s1 — outcome?
F

====

Tested on: DeltatarO mutant
Assay: S. aureus survival, RN4220 and DeltatarO strains – OD600, teichoic acid synthesis inhibitors, primary screen (AID 463173)
Conditions: S. aureus RN4220 wild type/DeltatarO growth, OD600, 18 h, stronger effect = lower value, screened at 18.75 µg/mL (by protocol)
Among all 52,000 compounds or so, about 4,300 (8.3%) were called active. Shown is part of a subset that was picked to be rich in actives.
In plain terms, low survival, meaning strictly below 80%, gives T, and everything else gives F.

Consider the following illustrative entries.
[[record]]
compound = "CCN(CC)c1ccc(NC(=O)CN2CCN(c3ccccc3F)CC2)cc1"
discrete_label = "T"

[[record]]
compound = "COc1ccccc1CNC(=O)c1cc2c(s1)-c1ccccc1OC2"
discrete_label = "T"

[[record]]
compound = "CCC1CN(C(=O)N2CCC(C(=O)NCCc3ccc(OC)c(OC)c3)CC2)c2ccccc2O1 (configuration not stated)"
discrete_label = "T"

[[record]]
compound = "COc1cc(OC)cc(C(=O)N2CCN(C(=O)COc3ccccc3)CC2)c1"
discrete_label = "T"

[[record]]
compound = "CC(C)CCN(Cc1ccco1)C(=O)c1cc2c(Cl)nc3ccccc3c2s1"
discrete_label = "T"

[[record]]
compound = "COc1ccc(C(=O)NCc2ccc3c(c2)CCN3C(=O)c2ccc(Cl)cc2)c(OC)c1"
discrete_label = "F"

[[record]]
compound = "Cc1ccc(-c2nc3ncccc3o2)cc1NC(=O)c1cccc(OCC(C)C)c1"
discrete_label = "T"

[[record]]
compound = "CCOc1ccc(-c2cc(C(=O)N3CCN(c4cc(Cl)ccc4C)CC3)c3ccccc3n2)cc1"
discrete_label = "T"

[[record]]
compound = "CN1CCN(C(CNC(=O)C(=O)Nc2ccccc2C#N)c2ccc3c(c2)OCO3)CC1 (configuration not stated)"
discrete_label = "T"

[[record]]
compound = "Cc1ccc(C(=O)Nc2cc(-c3nc4ncccc4o3)ccc2C)c(C)c1"
discrete_label = "F"


Quick check: survival of O=C(Nc1ccc(S(=O)(=O)N(Cc2ccccc2)c2ccccc2)cc1)c1ccccc1F under 80%?
T

Quick check: survival of Cc1ccc2c(CC(=O)N3CCN(c4cccc(Cl)c4)CC3)coc2c1 under 80%?
T

Quick check: survival of COc1cc(OC)cc(C(=O)N2CCN(C(=O)COc3ccc(C)cc3)CC2)c1 under 80%?
T

Quick check: survival of Cc1cc2nn(-c3ccc(F)cc3)nc2cc1NC(=O)c1cccc2ccccc12 under 80%?
T

Quick check: survival of O=C(CCS(=O)(=O)c1nc(-c2cccs2)cc(C(F)(F)F)n1)Nc1ccc(F)c(Cl)c1 under 80%?
T

Quick check: survival of Cc1ccc(C)c(NC(=O)CSc2nc(-c3ccccc3Cl)nc3c2Cc2c(CO)cnc(C)c2O3)c1 under 80%?
F
